// provenance: patent US20130216544A1

# Tested target: T1, bacterially produced recombinant murine La protein (rmLa) (murine, UniProt P32067 1-415)
# T1 construct: also called prokaryote-produced murine La protein
# T1 sequence (looked up): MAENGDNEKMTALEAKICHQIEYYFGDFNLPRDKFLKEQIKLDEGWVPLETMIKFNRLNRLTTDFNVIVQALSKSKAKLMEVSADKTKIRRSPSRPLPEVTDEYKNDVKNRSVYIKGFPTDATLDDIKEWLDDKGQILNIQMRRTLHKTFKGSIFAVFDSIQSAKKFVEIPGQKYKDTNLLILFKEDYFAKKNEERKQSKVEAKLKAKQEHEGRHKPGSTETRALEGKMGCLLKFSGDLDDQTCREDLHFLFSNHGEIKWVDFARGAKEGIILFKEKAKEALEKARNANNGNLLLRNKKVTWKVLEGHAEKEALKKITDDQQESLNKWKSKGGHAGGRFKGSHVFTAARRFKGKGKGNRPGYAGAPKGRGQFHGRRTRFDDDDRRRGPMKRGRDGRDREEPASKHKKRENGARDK
# Assay method text: immunoblot, bacterially produced rmLa

Binder	binding result
anti-La monoclonal antibody 312B (antibody, IgG1, V domains shown) VH: QVKLQESGAELMKPGSSVKFSCKAAGYTFTDYWIEWLKQRPGHGLEWIGEILPGSVSIKYNEKFKGKATFTADTSSNTAYMQLSSLTSEDSAVYYCARSRSIYDGYFYYWGQGTTLTVSS VL: DIVMTQSTASLSASVGETVTITCRASENIYTYLAWYQQKQGKSPQLLVYNAKTLAEGVPSRFSGSGSGTQFSLRINSLQPEDFGSYYCQHHYGTPYTFGGGTKLEIK	binds
anti-La monoclonal antibody 2F9 (antibody, IgG1, V domains shown) VH: EVQLQESGPGILQPSQTLSLTCSFSGFSLSTSGMGVSWIRQPSGKGLEWLAHIYWDDDKGYNPSLKSRLTISKDTSRNQVFLKITSVDTADTATYYCARGDVEFDYWGQGTTLTVSS VL: DIVLTQSTASLAVSLGQRATISCRASESVDSYGNSFMHWYQQKPGQPPKLLIYRASNLESGIPARFSGSGSRTDFTLTINPVEADDVATYYCQQSNEDPPTFGSGTKLEIK	binds
